# tested target: GST-Nv-NF-kB (Ser allele) (Nematostella vectensis, UniProt A7UNT2 2-411)
# Sequence: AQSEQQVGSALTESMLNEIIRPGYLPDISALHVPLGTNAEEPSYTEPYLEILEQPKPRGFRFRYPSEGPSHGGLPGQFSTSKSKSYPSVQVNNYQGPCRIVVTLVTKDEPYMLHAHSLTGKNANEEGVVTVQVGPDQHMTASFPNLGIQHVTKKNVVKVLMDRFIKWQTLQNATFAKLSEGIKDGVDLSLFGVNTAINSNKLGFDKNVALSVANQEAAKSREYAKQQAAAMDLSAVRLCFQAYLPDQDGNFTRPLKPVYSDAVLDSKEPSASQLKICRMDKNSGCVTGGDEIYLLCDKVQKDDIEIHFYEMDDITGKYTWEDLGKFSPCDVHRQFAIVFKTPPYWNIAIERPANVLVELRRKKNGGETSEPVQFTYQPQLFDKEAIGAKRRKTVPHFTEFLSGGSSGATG
# protocol text: protein-binding microarray (PBM); PBM: ~300 nM protein, 6 mM HEPES pH 7.8, 80 mM KCl, 0.5 mM EDTA, 0.5 mM EGTA, 6% glycerol, 35 ng/ul poly-dIdC, 1% milk, 1 h, room temperature; high values mean tight binding
# condition label: dsDNA, one strand shown
Exercise: state measured log10(binding signal) for each of the sequences provided.
Annotation: log10 of binding signal, z-score basis.

Solved entries (count: 5):
construct sequence: CCGATTAACATCAAAATTTACCCTGATGTTAATCGGGTCTTGATTCGCTTGACGCTGCTG
log10(binding signal): 0.79
--
construct sequence: CCGATTAACATCAGGGGAATTCATGATGTTAATCGGGTCTTGATTCGCTTGACGCTGCTG
log10(binding signal): 1.03
--
construct sequence: CCGATTAACATCAGGATTTCCCCTGATGTTAATCGGGTCTTGATTCGCTTGACGCTGCTG
log10(binding signal): 1.06
--
construct sequence: CCGATTAACATCACGGGGAATTCTGATGTTAATCGGGTCTTGATTCGCTTGACGCTGCTG
log10(binding signal): 1.01
--
construct sequence: CCGATTAACATCAGATACTCCCCTGATGTTAATCGGGTCTTGATTCGCTTGACGCTGCTG
log10(binding signal): 0.62

Need log10(binding signal) for each of these sequences.
1. CCGATTAACATCAGGGGGACTACTGATGTTAATCGGGTCTTGATTCGCTTGACGCTGCTG
2. CCGATTAACATCAATTTTTTCCCTGATGTTAATCGGGTCTTGATTCGCTTGACGCTGCTG
3. CCGATTAACATCACGGGAACACCTGATGTTAATCGGGTCTTGATTCGCTTGACGCTGCTG
4. CCGATTAACATCAGGGGAAAGTATGATGTTAATCGGGTCTTGATTCGCTTGACGCTGCTG
5. CCGATTAACATCAACGAAACCCCTGATGTTAATCGGGTCTTGATTCGCTTGACGCTGCTG

[0.65, 0.87, 0.01, 0.97, 0.45]

Need log10(binding signal) for each of these sequences.
1. CCGATTAACATCAGGCCTTTCCCTGATGTTAATCGGGTCTTGATTCGCTTGACGCTGCTG
2. CCGATTAACATCAGGGACTGCCCTGATGTTAATCGGGTCTTGATTCGCTTGACGCTGCTG
3. CCGATTAACATCAGGGGATTACCTGATGTTAATCGGGTCTTGATTCGCTTGACGCTGCTG
4. CCGATTAACATCAGGGTTTTACCTGATGTTAATCGGGTCTTGATTCGCTTGACGCTGCTG
5. CCGATTAACATCAGGGGAAAAGATGATGTTAATCGGGTCTTGATTCGCTTGACGCTGCTG
6. CCGATTAACATCAAAAAACCCCTTGATGTTAATCGGGTCTTGATTCGCTTGACGCTGCTG

1. 0.42
2. 0.49
3. 0.99
4. 0.64
5. 0.95
6. 0.90

Need log10(binding signal) for each of these sequences.
1. CCGATTAACATCAGGAGTGTCCCTGATGTTAATCGGGTCTTGATTCGCTTGACGCTGCTG
2. CCGATTAACATCAGGGACATCCCTGATGTTAATCGGGTCTTGATTCGCTTGACGCTGCTG

1: 0.16; 2: 0.63

----------
# tested target: GST-Ap-NF-kB RHD (Exaiptasia pallida (Aiptasia), UniProt A0A913YAJ5 2-422)
# Sequence: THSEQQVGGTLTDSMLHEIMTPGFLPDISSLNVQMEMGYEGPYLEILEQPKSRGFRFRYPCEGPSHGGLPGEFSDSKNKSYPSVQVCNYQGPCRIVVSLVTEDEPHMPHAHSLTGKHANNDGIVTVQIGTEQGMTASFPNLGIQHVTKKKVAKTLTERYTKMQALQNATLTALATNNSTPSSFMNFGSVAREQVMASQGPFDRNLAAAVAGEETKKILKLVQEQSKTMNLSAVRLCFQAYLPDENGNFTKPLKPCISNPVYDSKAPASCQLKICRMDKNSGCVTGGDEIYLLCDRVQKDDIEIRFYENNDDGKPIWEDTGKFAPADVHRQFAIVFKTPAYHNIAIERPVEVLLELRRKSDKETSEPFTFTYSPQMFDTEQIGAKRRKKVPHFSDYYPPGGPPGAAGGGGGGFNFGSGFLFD
# protocol text: protein-binding microarray (PBM); PBM: ~300 nM protein, 6 mM HEPES pH 7.8, 80 mM KCl, 0.5 mM EDTA, 0.5 mM EGTA, 6% glycerol, 35 ng/ul poly-dIdC, 1% milk, 1 h, room temperature; Ap Aiptasia and Nv Nematostella (sea anemones) / Co Capsaspora / Aq Amphimedon (sponge) / Dm Drosophila / Hu human; RHD is the Rel homology domain; high values mean tight binding
# condition label: dsDNA, one strand shown
Exercise: state measured binding signal for each of the sequences provided.
Give bare numbers, in z-score.

Need binding signal for each of these sequences.
1. CCGATTAACATCAGGGGGACTACTGATGTTAATCGGGTCTTGATTCGCTTGACGCTGCTG
2. CCGATTAACATCAACCCTCCCCCTGATGTTAATCGGGTCTTGATTCGCTTGACGCTGCTG
3. CCGATTAACATCACGAGATTCCCTGATGTTAATCGGGTCTTGATTCGCTTGACGCTGCTG
4. CCGATTAACATCAGGAGTGTCCCTGATGTTAATCGGGTCTTGATTCGCTTGACGCTGCTG
5. CCGATTAACATCAATAAATACCCTGATGTTAATCGGGTCTTGATTCGCTTGACGCTGCTG
6. CCGATTAACATCACCCACTCCCCTGATGTTAATCGGGTCTTGATTCGCTTGACGCTGCTG

6.49
3.89
3.03
2.12
3.73
4.11

Need binding signal for each of these sequences.
1. CCGATTAACATCAAAATTCCCCATGATGTTAATCGGGTCTTGATTCGCTTGACGCTGCTG
2. CCGATTAACATCACCCCAAACGCTGATGTTAATCGGGTCTTGATTCGCTTGACGCTGCTG

1. 8.8
2. 1.27

Need binding signal for each of these sequences.
1. CCGATTAACATCAGGGAGTCACCTGATGTTAATCGGGTCTTGATTCGCTTGACGCTGCTG
2. CCGATTAACATCAAAAGGGGATATGATGTTAATCGGGTCTTGATTCGCTTGACGCTGCTG
3. CCGATTAACATCATTTTGGGGACTGATGTTAATCGGGTCTTGATTCGCTTGACGCTGCTG
4. CCGATTAACATCAGGAAAATACCTGATGTTAATCGGGTCTTGATTCGCTTGACGCTGCTG
5. CCGATTAACATCAAGAATTCCCATGATGTTAATCGGGTCTTGATTCGCTTGACGCTGCTG

1. 3.25
2. 4.87
3. 2.93
4. 1.22
5. 4.1

Need binding signal for each of these sequences.
1. CCGATTAACATCACGGATTCCCCTGATGTTAATCGGGTCTTGATTCGCTTGACGCTGCTG
2. CCGATTAACATCACATTTTCCCCTGATGTTAATCGGGTCTTGATTCGCTTGACGCTGCTG
3. CCGATTAACATCACAATATCCCCTGATGTTAATCGGGTCTTGATTCGCTTGACGCTGCTG
4. CCGATTAACATCAGGGGGGAGACTGATGTTAATCGGGTCTTGATTCGCTTGACGCTGCTG
5. CCGATTAACATCAATTTCCCCCGTGATGTTAATCGGGTCTTGATTCGCTTGACGCTGCTG
6. CCGATTAACATCAGGGCACCCCCTGATGTTAATCGGGTCTTGATTCGCTTGACGCTGCTG

[8.74, 6.76, 7.16, 5.88, 7.85, 6.14]

Need binding signal for each of these sequences.
1. CCGATTAACATCACCAAAACCCCTGATGTTAATCGGGTCTTGATTCGCTTGACGCTGCTG
2. CCGATTAACATCAAGGGGGGGAGTGATGTTAATCGGGTCTTGATTCGCTTGACGCTGCTG
3. CCGATTAACATCAAGGAATTACCTGATGTTAATCGGGTCTTGATTCGCTTGACGCTGCTG
4. CCGATTAACATCAGGATATCCCATGATGTTAATCGGGTCTTGATTCGCTTGACGCTGCTG
5. CCGATTAACATCAGGGGAAGGAATGATGTTAATCGGGTCTTGATTCGCTTGACGCTGCTG
6. CCGATTAACATCAAAACACCCCTTGATGTTAATCGGGTCTTGATTCGCTTGACGCTGCTG
7. CCGATTAACATCACAAAACTCCCTGATGTTAATCGGGTCTTGATTCGCTTGACGCTGCTG

4.76
4.51
1.08
2.32
3.87
3.63
4.94

Need binding signal for each of these sequences.
1. CCGATTAACATCACGGGAAATCCTGATGTTAATCGGGTCTTGATTCGCTTGACGCTGCTG
2. CCGATTAACATCAGGGAAATACCTGATGTTAATCGGGTCTTGATTCGCTTGACGCTGCTG
3. CCGATTAACATCAGAATTACCCCTGATGTTAATCGGGTCTTGATTCGCTTGACGCTGCTG
4. CCGATTAACATCACCGCCCCACGTGATGTTAATCGGGTCTTGATTCGCTTGACGCTGCTG
5. CCGATTAACATCAGCACGGGAAATGATGTTAATCGGGTCTTGATTCGCTTGACGCTGCTG
6. CCGATTAACATCAAAAAAGCCCCTGATGTTAATCGGGTCTTGATTCGCTTGACGCTGCTG
7. CCGATTAACATCAGGGGACTTTATGATGTTAATCGGGTCTTGATTCGCTTGACGCTGCTG
8. CCGATTAACATCAAGAGACCCCCTGATGTTAATCGGGTCTTGATTCGCTTGACGCTGCTG

1. 5.03
2. 6
3. 4.43
4. 1.95
5. 1.76
6. 7.94
7. 7.86
8. 5.03

Need binding signal for each of these sequences.
1. CCGATTAACATCAGGGAGGCCCCTGATGTTAATCGGGTCTTGATTCGCTTGACGCTGCTG
2. CCGATTAACATCAAGAAAGTCCCTGATGTTAATCGGGTCTTGATTCGCTTGACGCTGCTG

1: 5.52; 2: 7.56
